# Target System: Polyunsaturated fatty acid lipoxygenase ALOX12 (Homo sapiens) (UniProt P18054)
# Sequence (P18054 whole entry, looked up): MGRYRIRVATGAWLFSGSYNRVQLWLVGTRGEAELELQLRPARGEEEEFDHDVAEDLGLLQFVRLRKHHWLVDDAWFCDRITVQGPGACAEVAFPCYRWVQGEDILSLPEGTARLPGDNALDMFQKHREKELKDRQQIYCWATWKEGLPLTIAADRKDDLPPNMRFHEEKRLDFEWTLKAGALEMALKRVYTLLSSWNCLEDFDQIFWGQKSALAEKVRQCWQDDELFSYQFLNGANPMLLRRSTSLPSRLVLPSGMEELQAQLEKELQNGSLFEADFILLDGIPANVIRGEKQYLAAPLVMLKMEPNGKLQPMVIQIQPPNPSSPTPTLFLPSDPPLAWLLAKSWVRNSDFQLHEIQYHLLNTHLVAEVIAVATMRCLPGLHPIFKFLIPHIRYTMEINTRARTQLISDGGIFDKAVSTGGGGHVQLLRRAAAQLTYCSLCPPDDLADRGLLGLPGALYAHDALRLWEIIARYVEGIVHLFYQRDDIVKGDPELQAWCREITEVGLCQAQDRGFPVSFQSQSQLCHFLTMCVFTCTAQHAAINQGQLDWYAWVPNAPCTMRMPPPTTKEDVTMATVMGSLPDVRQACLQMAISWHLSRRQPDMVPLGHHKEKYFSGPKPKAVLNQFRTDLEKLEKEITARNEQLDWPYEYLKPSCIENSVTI
# Assay Info: Primary qHTS assay for inhibitors of human arachidonate 12S-lipoxygenase (ALOX12): Round 2
# Reported Conditions: purified 12hLO, xylenol orange hydroperoxide absorbance; series mostly up to 108 µM
The campaign covered roughly 580,000 compounds. About 6,100 (1.1%) were called active. Roughly 15% stayed inconclusive and do not appear here. Calls follow the shape of the dose curve; as a rule, active = well fitted inhibition curve with a large enough effect; inconclusive = small, poorly fitted or top-dose-only effect, or another doubt; inactive = no such curve, though single readings can be large or run the other way. The full list was thinned out, with actives kept by preference.
Classes used: active, inactive

Compound: O=C(Cc1ccc(Cl)cc1)NN=C1CCC(c2ccccc2)CC1 (centres undefined)
Category: inactive
//
Compound: C=CCn1c(N2CCC(C(N)=O)CC2)nc2c1c(=O)[nH]c(=O)n2C
Category: inactive
//
Compound: COc1ccc(C(C#N)=C2C=CC(=NO)c3ccccc32)cc1
Category: active
//
Compound: CCOc1ccccc1NC(=O)C1CCN(S(=O)(=O)c2c(C)nn(C)c2C)CC1
Category: inactive
//
Compound: O=C(O)c1cc(-c2ccc3ccccc3n2)nc2ccc3ccccc3c12
Category: inactive
//
Compound: Cc1ccc(S(=O)(=O)NCC(C)NS(C)(=O)=O)cc1 (centres undefined)
Category: inactive
//
Compound: CCOC(=O)c1c(S(=O)(=O)N2CCCC2)nn(C)c1C
Category: active
//
Compound: Cn1cc(CN2CCn3c(nnc3[C@@H]3C[C@@H](O)CN3Cc3ccccc3)C2)c2ccccc21
Category: inactive
//
Compound: COc1cc(Br)c(/C=C(/C#N)C(=O)c2ccccc2)cc1O
Category: active
//
Compound: O=C(CN1CCN(C/C=C/c2ccccc2)CC1)Nc1ccc(F)cc1F
Category: inactive
//
Compound: C=CCN(C)C(=O)[C@@H](C)C1CC[C@@]2(C)Cc3sc(NS(=O)(=O)c4ccc(Cl)cc4)nc3[C@@H](C)[C@@H]2[C@H]1O (some centres undefined)
Category: active
//
Compound: CCCOc1ccc(C2C(C(=O)c3ccc(C)o3)=C(O)C(=O)N2CCCn2ccnc2)cc1 (centres undefined)
Category: inactive
//
Compound: CC(C)Oc1ccc(Cc2n[nH]c(=S)n2Cc2ccccc2)cc1Cl
Category: inactive
//
Compound: CCN(CC)C(=O)[C@@H](C)C1CC[C@@]2(C)Cc3sc(N)nc3[C@@H](C)[C@@H]2[C@H]1O (some centres undefined)
Category: inactive
//
Compound: C[N+]1(CCNC(=O)/C=N/O)CCCCC1
Category: active
//
Compound: COc1ccccc1NC(=O)c1cc2c(OC)c(OC)c(OC)cc2[nH]1
Category: inactive
//
Compound: CCn1nnc(NC(=O)c2cc3ccccc3cc2OC)n1
Category: inactive
//
Compound: O=C(CC(NC(=O)c1ccccc1)c1ccccc1)NC12CC3CC(CC(C3)C1)C2 (centres undefined)
Category: inactive
//
Compound: CCCn1nnc(NC(=O)c2cc3ccccc3cc2OC)n1
Category: inactive
//
Compound: CCc1ccccc1NC(=O)CSc1nc2c(=O)[nH]cnc2n1CC
Category: inactive
//
Compound: Cc1ccc(/C=C/C(=O)/C=C/c2ccc(C)cc2)cc1
Category: inactive
//
Compound: O=C(COc1ccc2ccccc2c1)Nc1nc2n(n1)C(c1ccc(Cl)cc1)CC(=O)N2 (centres undefined)
Category: inactive
//
Compound: c1ccc(CNc2ncncc2-c2cccnc2)cc1
Category: active
//
Compound: COc1cc(C2C(C(=O)c3ccc(C)o3)=C(O)C(=O)N2CCc2ccccc2)ccc1O (centres undefined)
Category: active
//
Compound: COC(=O)c1c(CN2CCC(C(N)=O)CC2)nc2ccccc2c1C
Category: inactive
//
Compound: COc1cc(Cl)c(C)cc1NC(=O)Cn1nc(-c2cccs2)oc1=O
Category: inactive
//
Compound: CN1CCN(C(=O)c2cccc(C(F)(F)F)c2)CC1
Category: inactive
//
Compound: Cc1cnc(CNc2nc(-c3cccnc3)nc3ccccc23)cn1
Category: inactive
//
Compound: O=C(CSc1nc2ccccc2nc1N1CCCCC1)Nc1cccc(Br)c1
Category: inactive
//
Compound: COc1ccc(C2C(C#N)=C(N)N(c3ncn[nH]3)C3=C2C(=O)CCC3)cc1 (centres undefined)
Category: inactive
//
Compound: COC(=O)c1ccc(OC)cc1OCc1ccccc1C#N
Category: inactive
//
Compound: COc1cc(C=CC(=O)O)ccc1O
Category: inactive
//
Compound: COc1cc(C2C(C(=O)c3sc(C)nc3C)=C(O)C(=O)N2CCN(C)C)cc(OC)c1OC (centres undefined)
Category: inactive
//
Compound: COc1cccc(Oc2coc3cc(OC)ccc3c2=O)c1
Category: inactive
//
Compound: COc1ccccc1NC(=O)c1cc2ccccc2cc1OCC(N)=O
Category: active
//
Compound: Fc1ccc(N/N=C/c2ccc(-c3ccccc3)cc2)c(F)c1
Category: active
//
Compound: CCOC(=O)C1=C(c2ccccc2)N=C2SCC(=O)N2C1c1ccc(O)c(OC)c1 (centres undefined)
Category: inactive
//
Compound: O=C1C(Cl)=C(Oc2ccccc2)C(=O)c2ccccc21
Category: active
//
Compound: COc1ccc(C(=O)OCc2ccc(Br)cc2)c(OC)c1
Category: inactive
//
Compound: O=S(=O)(NCCc1nnc2ccc(SCc3ccc(Cl)cc3Cl)nn12)c1ccccc1
Category: inactive
//
Compound: CCC1CCCCN1C(=O)Cn1cccc1-c1nc(-c2ccc(F)cc2)no1 (centres undefined)
Category: inactive
//
Compound: CCOc1c(Br)cc(/C=C/C(=O)c2ccc(OC)c(OC)c2)cc1OC
Category: inactive
//
Compound: COc1ccc(C(=O)/C(C#N)=C\c2ccccc2OC(F)F)cc1
Category: inactive
//
Compound: COCCN1C(=O)C(O)=C(C(=O)c2ccc(C)o2)C1c1ccc(O)c(OC)c1 (centres undefined)
Category: active

The reported measurements were obtained from PubChem BioAssay AID1671190.
